# TARGET_OR_SYSTEM: catalytic domain of human Bub1 (amino acids 704-1085) (Homo sapiens)
# Construct: catalytic domain of human Bub1 (amino acids 704-1085); His6 (N); made in house; host or cells: Hi5 insect cells
# ASSAY_PROCEDURE: Bub1 kinase assay (TR-FRET)
# Format: biochemical
# CONDITION_PARAMETERS: TR-FRET; ATP 10 μM, peptide substrate 1 μM; 60 min at 22° C.; average or median if tested more than once; read-out: Inhibition of Bub1 kinase IC50
A collection of compounds and their measured pIC50
Scale explanation: pIC50 corresponds to minus log10 of a concentration expressed in moles per litre.

CC(=O)Nc1cc(-c2[nH]c3c(c2Nc2ccccc2)C(=O)CN(C(=O)c2cn(C)cn2)C3)ccn1 | 6.83

INPUT: Give pIC50 for the following compound: `CC(=O)Nc1cc(-c2[nH]c3c(c2Nc2ccccc2)C(=O)CN(S(=O)(=O)C2CC2)C3)ccn1`
OUTPUT: 8.30

INPUT: Give pIC50 for the following compound: `CC(=O)Nc1cc(-c2[nH]c3c(c2Nc2ccccc2)C(=O)CN(C(=O)N2CCCCC2)C3)ccn1`
OUTPUT: 8.52

INPUT: Give pIC50 for the following compound: `CS(=O)(=O)N1CC(=O)c2c([nH]c(-c3ccncc3)c2Nc2ccccc2)C1`
OUTPUT: 8.10

----------
# TARGET_OR_SYSTEM: catalytic domain of human Bub1 (amino acids 704-1085) (Homo sapiens, UniProt O43683)
# Construct: catalytic domain of human Bub1 (amino acids 704-1085); His6 (N); made in house; host or cells: Hi5 insect cells
# Sequence (O43683 704-1085): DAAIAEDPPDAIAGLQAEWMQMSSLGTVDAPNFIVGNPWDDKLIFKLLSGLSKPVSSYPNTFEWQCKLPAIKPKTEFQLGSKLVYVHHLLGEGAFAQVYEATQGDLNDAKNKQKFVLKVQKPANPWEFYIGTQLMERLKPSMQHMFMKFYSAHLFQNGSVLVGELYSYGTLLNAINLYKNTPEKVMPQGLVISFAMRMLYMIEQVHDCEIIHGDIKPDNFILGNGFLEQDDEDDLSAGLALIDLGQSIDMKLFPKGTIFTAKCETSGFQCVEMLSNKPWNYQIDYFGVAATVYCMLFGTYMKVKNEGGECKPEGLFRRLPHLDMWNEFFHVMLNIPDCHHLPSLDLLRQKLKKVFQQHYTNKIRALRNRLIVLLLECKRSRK
# ASSAY_PROCEDURE: Bub1 kinase assay (TR-FRET)
# Assay type: biochemical
# CONDITION_PARAMETERS: TR-FRET; ATP 10 μM, peptide substrate 1 μM; 60 min at 22° C.; average or median if tested more than once; read-out: Inhibition of Bub1 kinase IC50
QUANTITY_KIND: IC50 (µM)
Only the number, expressed in µM, is required.

Example entries begin here.
O=C(Nc1cc(-c2[nH]c3c(c2Nc2ccccc2)C(=O)COC3)ccn1)c1cscn1 [Example 49] | 0.051
CS(=O)(=O)N1CC(=O)c2c([nH]c(-c3ccnc(NC(=O)C4CC4(F)F)c3)c2Nc2ccccc2)C1 (racemic) [Example 149] | 0.004
COCCOCCNC(=O)N1CC(=O)c2c([nH]c(-c3ccncc3)c2Nc2ccccc2)C1 [Example 90] | 0.021

Consider the record given below.
INPUT: Give IC50 for the following compound: O=C1CN(C(=O)OCCF)Cc2[nH]c(-c3ccncc3)c(Nc3ccccc3)c21 [Example 79]
OUTPUT: 0.008

----------
# TARGET_OR_SYSTEM: catalytic domain of human Bub1 (amino acids 704-1085) (Homo sapiens)
# Construct: catalytic domain of human Bub1 (amino acids 704-1085); His6 (N); made in house; host or cells: Hi5 insect cells
# ASSAY_PROCEDURE: Bub1 kinase assay (TR-FRET)
# Format: biochemical
# CONDITION_PARAMETERS: TR-FRET; ATP 10 μM, peptide substrate 1 μM; 60 min at 22° C.; average or median if tested more than once; read-out: Inhibition of Bub1 kinase IC50
QUANTITY_KIND: IC50 (nM)
Only the number, expressed in nM, is required.

INPUT: Give IC50 for the following compound: `CC(C)(C)SC(=O)N1CC(=O)c2c([nH]c(-c3ccnc(NC(=O)C4(F)CC4)c3)c2Nc2ccccc2)C1`
OUTPUT: 182

INPUT: Give IC50 for the following compound: `O=C1CN(C(=O)c2ccncc2)Cc2[nH]c(-c3ccnc(NC(=O)[C@@H]4C[C@@H]4F)c3)c(Nc3ccccc3)c21`
OUTPUT: 7

INPUT: Give IC50 for the following compound: `O=C1CN(S(=O)(=O)c2cnc[nH]2)Cc2[nH]c(-c3ccnc(NC(=O)C4(F)CC4)c3)c(Nc3ccccc3)c21`
OUTPUT: 14

INPUT: Give IC50 for the following compound: `O=C1CNCc2[nH]c(-c3ccncc3Cl)c(Nc3ccccc3)c21`
OUTPUT: 236
